Target: human PPARalpha (Homo sapiens, UniProt Q07869)
Construct: human PPARalpha receptor (amino acids S167-Y468)
Sequence (Q07869 167-468): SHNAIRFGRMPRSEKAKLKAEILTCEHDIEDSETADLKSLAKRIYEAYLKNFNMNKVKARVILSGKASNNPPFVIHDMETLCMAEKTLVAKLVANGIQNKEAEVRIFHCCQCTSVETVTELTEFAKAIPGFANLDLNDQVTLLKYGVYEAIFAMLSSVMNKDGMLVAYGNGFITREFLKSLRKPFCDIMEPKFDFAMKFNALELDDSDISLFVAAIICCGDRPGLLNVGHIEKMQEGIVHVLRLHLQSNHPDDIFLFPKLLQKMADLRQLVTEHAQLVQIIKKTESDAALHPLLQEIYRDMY
Assay: Cellular PPARalpha assay (stably transfected HEK luciferase reporter cell line)
Settings: GR-GAL4-humanPPARalpha-LBD, luciferase readout
The label rule met is reserved for EC50 strictly under 80 nM; rule not met covers values equal to or above it.

Past entries and their recorded results:
CCCCNC(=O)N(CCO[C@H]1CCC[C@@H](OCc2cccc(C)c2C(=O)O)C1)C1CCCCC1 (racemic) : rule not met
CCCCNC(=O)N(CCO[C@H]1CCC[C@@H](OCc2cccc(C)c2C(=O)O)C1)Cc1ccc(C)cc1 : rule met
Cc1cccc(CO[C@@H]2CCC[C@H](OCCN(C(=O)Nc3cccc(F)c3)C3CCCCC3)C2)c1C(=O)O (racemic) : rule met
CCCCCCCN(CCO[C@H]1CCC[C@@H](OCc2cccc(C)c2C(=O)O)C1)C(=O)Nc1ccccc1 : rule met

Shifting focus to the molecule that follows.
Ask: # strict comparison: is reported EC50 < 80 nM? input = Cc1cccc(CO[C@@H]2CCC[C@H](OCCN(C(=O)Nc3cccc(F)c3)C3CC3)C2)c1C(=O)O (racemic)
Result: rule not met

---

Target: human PPARalpha (Homo sapiens)
Construct: human PPARalpha receptor (amino acids S167-Y468)
Assay: Cellular PPARalpha assay (stably transfected HEK luciferase reporter cell line)
Conditions: GR-GAL4-humanPPARalpha-LBD, luciferase readout
Recorded log10(EC50) values for a group of compounds are listed next.
Scale type: logarithmic (base 10). Underlying EC50 unit: nM.

CCCCNC(=O)N(CCOC1CCCC(OCc2cccc(C)c2C(=O)O)C1)C(C)CC(C)C (mixture of isomers) : 0.52
Cc1ccccc1NC(=O)N(CCO[C@H]1CCC[C@@H](OCc2cccc(C)c2C(=O)O)C1)C1CCCCC1 (racemic) : 1.49
Cc1cccc(CO[C@@H]2CCC[C@H](OCCN(CC(C)(C)C)C(=O)Nc3ccccc3)C2)c1C(=O)O : 1.98
CCCCCN(CCO[C@H]1CCC[C@@H](OCc2cccc(C)c2C(=O)O)C1)C(=O)Nc1ccccc1 : 0.23
Cc1cccc(CO[C@@H]2CCC[C@H](OCCN(CCCc3ccccc3)C(=O)Nc3ccccc3)C2)c1C(=O)O : 0.28
Cc1cccc(CO[C@@H]2CCC[C@H](OCCN(CCc3ccc(Cl)cc3)C(=O)Nc3ccccc3)C2)c1C(=O)O : 0.69

Ask: Look up log10(EC50) of CCCCCCCN(CCO[C@H]1CCC[C@@H](OCc2cccc(C)c2C(=O)O)C1)C(=O)NCCCC (racemic) and report it.
Result: -0.77
